- Test system: Jurkat cells
- experimental protocol: (r) Cell cytotoxicity assay
- Format: cell-based, human
- reported conditions: 1 μg/mL, 24 hours
We begin with a simple list: items and their reported % Viability at 1 μg/mL.

{"compound structure string": "COc1cc(Nc2cc(Oc3ccc(NC(=O)Nc4cc(C(C)(C)C)cc(NS(C)(=O)=O)c4OC)c4ccccc34)ccn2)ccc1C(=O)NCCOCCOCCO", "% Viability at 1 μg/mL (%)": 90.1}
{"compound structure string": "COc1cc(Nc2cc(Oc3ccc(NC(=O)Nc4cc(C(C)(C)C)cc(NS(C)(=O)=O)c4OC)c4ccccc34)ccn2)ccc1C(=O)NCCOCCO", "% Viability at 1 μg/mL (%)": 103.6}
{"compound structure string": "COc1cc(Nc2cc(Oc3ccc(NC(=O)Nc4cc(C(C)(C)C)cc(NS(C)(=O)=O)c4OC)c4ccccc34)ccn2)ccc1C(=O)NCCN1CCN(C(=O)CCC(=O)O)CC1", "% Viability at 1 μg/mL (%)": 96.1}
{"compound structure string": "C#Cc1cc(Nc2cc(Oc3ccc(NC(=O)Nc4cc(C(C)(C)C)cc(NS(C)(=O)=O)c4OC)c4ccccc34)ccn2)ccc1C(=O)NCCN1CCOCC1", "% Viability at 1 μg/mL (%)": 99.5}
{"compound structure string": "COc1cc(Nc2cc(Oc3ccc(NC(=O)Nc4cc(C(C)(C)C)cc(NS(C)(=O)=O)c4OC)c4ccccc34)ccn2)ccc1C(=O)NCCN1CCCCC1", "% Viability at 1 μg/mL (%)": 102.1}
{"compound structure string": "COc1cc(Nc2cc(Oc3ccc(NC(=O)Nc4cc(C(C)(C)C)cc(NS(C)(=O)=O)c4OC)c4ccccc34)ccn2)ccc1CP(C)(=O)O", "% Viability at 1 μg/mL (%)": 95.3}
{"compound structure string": "CCN1CCN(CCNC(=O)c2ccc(Nc3cc(Oc4ccc(NC(=O)Nc5cc(C(C)(C)C)cc(NS(C)(=O)=O)c5OC)c5ccccc45)ccn3)cc2OC)CC1", "% Viability at 1 μg/mL (%)": 92.4}
{"compound structure string": "COc1cc(Nc2cc(Oc3ccc(NC(=O)Nc4cc(C(C)(C)C)cc(NS(C)(=O)=O)c4OC)c4ccccc34)ccn2)cc(OC)c1C(=O)NCCOCCOCCO", "% Viability at 1 μg/mL (%)": 93.3}
{"compound structure string": "COc1cc(Nc2cc(Oc3ccc(NC(=O)Nc4cc(C(C)(C)C)cc(NS(C)(=O)=O)c4OC)c4ccccc34)ccn2)ccc1C(=O)NCCN1CCSCC1", "% Viability at 1 μg/mL (%)": 102.8}
{"compound structure string": "COc1cc(Nc2cc(Oc3ccc(NC(=O)Nc4cc(C(C)(C)C)cc(NS(C)(=O)=O)c4OC)c4ccccc34)ccn2)ccc1C(=O)NCCC1(O)CCN(C)CC1", "% Viability at 1 μg/mL (%)": 86.5}
{"compound structure string": "COc1cc(Nc2cc(Oc3ccc(NC(=O)Nc4cc(C(C)(C)C)cc(NS(C)(=O)=O)c4OC)c4ccccc34)ccn2)ccc1C(=O)N[C@@H](CO)C(=O)O", "% Viability at 1 μg/mL (%)": 96.2}
{"compound structure string": "COc1cc(Nc2nccc(Oc3ccc(NC(=O)Nc4cc(C(C)(C)C)cc(NS(C)(=O)=O)c4OC)c4ccccc34)n2)ccc1S(N)(=O)=O", "% Viability at 1 μg/mL (%)": 100.0}
{"compound structure string": "COc1cc(Nc2cc(Oc3ccc(NC(=O)Nc4cc(C(C)(C)C)cc(NC(=O)COP(=O)(O)O)c4OC)c4ccccc34)ccn2)ccc1C(=O)NCCN1CC[S+]([O-])CC1", "% Viability at 1 μg/mL (%)": 97.6}
{"compound structure string": "COc1cc(Nc2nccc(Oc3ccc(NC(=O)Nc4cc(C(C)(C)C)cc(NS(C)(=O)=O)c4OC)c4ccccc34)n2)ccc1C(=O)NCCC1CCN(C)CC1", "% Viability at 1 μg/mL (%)": 97.9}
{"compound structure string": "COc1cc(Nc2cc(Oc3ccc(NC(=O)Nc4cc(C(C)(C)C)cc(NS(C)(=O)=O)c4OC)c4ccccc34)ccn2)ccc1C(=O)NCCN1CCN(C(C)C)CC1", "% Viability at 1 μg/mL (%)": 90.7}
{"compound structure string": "COc1cc(Nc2cc(Oc3ccc(NC(=O)Nc4cc(C(C)(C)C)cc(NS(C)(=O)=O)c4OC)c4ccccc34)ccn2)ccc1C(=O)NCCCCCN(C)C", "% Viability at 1 μg/mL (%)": 85.8}
{"compound structure string": "COc1cc(Nc2cc(Oc3ccc(NC(=O)Nc4cc(C(C)(C)C)cc(NS(C)(=O)=O)c4OC)c4ccccc34)ccn2)cc(OC)c1C(=O)NCCN(C)C", "% Viability at 1 μg/mL (%)": 93.9}
{"compound structure string": "COc1cc(Nc2cc(Oc3ccc(NC(=O)Nc4cc(C(C)(C)C)cc(NS(C)(=O)=O)c4OC)c4ccccc34)ccn2)cc(OC)c1C(=O)NCCC1CCN(C)CC1", "% Viability at 1 μg/mL (%)": 95.2}
